System: Hs578T complex spheroid growth, percent test/control
Assay: Anticancer human tumor Hs578T cell line growth inhibition [AhR]; active means viability on the fitted dose curve at most 10% of control; inactive means the rest
Conditions: second compound 0.316 µM; first compound 10 µM
Excerpt: Multicellular complex tumor spheroid response to aryl hydrocarbon receptor antagonists in combination with a variety of drugs and investigational agents in selected tumor cell lines […] Compounds. […] If the clinical Cmax for an agent had not been determined, the highest concentration tested was 10 microM (Table 1). […]
Labels: t = active, f = inactive

{"columns": ["molecule", "class_name"],
 "data": [
  ["CC1(C)CCC(CN2CCN(c3ccc(C(=O)NS(=O)(=O)c4ccc(NCC5CCOCC5)c([N+](=O)[O-])c4)c(Oc4cnc5[nH]ccc5c4)c3)CC2)=C(c2ccc(Cl)cc2)C1 + Cc1cncc(-c2nc(NCCc3c[nH]c4ccccc34)c3ncn(C(C)C)c3n2)c1", "f"],
  ["O=C(c1cc(Cc2n[nH]c(=O)c3ccccc23)ccc1F)N1CCN(C(=O)C2CC2)CC1 + Cc1cncc(-c2nc(NCCc3c[nH]c4ccccc34)c3ncn(C(C)C)c3n2)c1", "f"],
  ["NS(=O)(=O)OCC1CC(n2ccc3c(NC4CCc5ccccc54)ncnc32)CC1O (stereo unspecified) + CC(CO)NC(=O)c1cc(-c2ccc(Cl)cc2)nn(-c2cnn(C)c2)c1=O", "f"],
  ["CC1COCCN1c1cc(C2(S(C)(=N)=O)CC2)nc(-c2ccnc3[nH]ccc23)n1 (stereo unspecified) + CC(CO)NC(=O)c1cc(-c2ccc(Cl)cc2)nn(-c2cnn(C)c2)c1=O", "f"],
  ["NS(=O)(=O)OCC1CC(n2ccc3c(NC4CCc5ccccc54)ncnc32)CC1O (stereo unspecified) + Cc1cncc(-c2nc(NCCc3c[nH]c4ccccc34)c3ncn(C(C)C)c3n2)c1", "f"],
  ["O=C(C=Cc1cccc(S(=O)(=O)Nc2ccccc2)c1)NO + CC(CO)NC(=O)c1cc(-c2ccc(Cl)cc2)nn(-c2cnn(C)c2)c1=O", "t"]
]}

====

Tested on: Hs578T complex spheroid growth, percent test/control
Assay: Anticancer human tumor Hs578T cell line growth inhibition [AhR];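 further: luminescent viability signal as a proxy for spheroid growth; spheroids exposed to agents for one week after three days of growth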
Conditions: second compound 0.316 µM; first compound 0.316 µM; stronger effect = lower value
reported_endpoint: viability, T/C (%)

{"columns": ["compound", "reported_endpoint", "recorded_result"],
 "data": [
  ["COc1cc(Nc2ncc3c(n2)-c2ccc(Cl)cc2C(c2c(F)cccc2OC)=NC3)ccc1C(=O)O + Cc1cncc(-c2nc(NCCc3c[nH]c4ccccc34)c3ncn(C(C)C)c3n2)c1", "viability, T/C", 107],
  ["COc1cc(C2c3cc4c(cc3C(OC3OC5COC(C)OC5C(O)C3O)C3COC(=O)C23)OCO4)cc(OC)c1O (stereo unspecified) + CC(CO)NC(=O)c1cc(-c2ccc(Cl)cc2)nn(-c2cnn(C)c2)c1=O", "viability, T/C", 105],
  ["O=C(C=Cc1cccc(S(=O)(=O)Nc2ccccc2)c1)NO + Cc1ccccc1N=Nc1ccc(NC(=O)c2ccnn2C)c(C)c1", "viability, T/C", 94],
  ["CC1COCCN1c1cc(C2(S(C)(=N)=O)CC2)nc(-c2ccnc3[nH]ccc23)n1 (stereo unspecified) + Cc1cncc(-c2nc(NCCc3c[nH]c4ccccc34)c3ncn(C(C)C)c3n2)c1", "viability, T/C", 116],
  ["CC1COCCN1c1cc(C2(S(C)(=N)=O)CC2)nc(-c2ccnc3[nH]ccc23)n1 (stereo unspecified) + CC(CO)NC(=O)c1cc(-c2ccc(Cl)cc2)nn(-c2cnn(C)c2)c1=O", "viability, T/C", 127],
  ["CC1COCCN1c1cc(-c2ccnn2C)c2ccnc(-c3ccn[nH]3)c2n1 (stereo unspecified) + Cc1cncc(-c2nc(NCCc3c[nH]c4ccccc34)c3ncn(C(C)C)c3n2)c1", "viability, T/C", 57.2]
]}

====

System: Hs578T complex spheroid growth, percent test/control
Experiment: Anticancer human tumor Hs578T cell line growth inhibition [AhR];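 further: luminescent viability signal as a proxy for spheroid growth; spheroids exposed to agents for one week after three days of growth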
Settings: curve of first compound; second compound 3.16 µM
pIC50: −log10 of the molar value.
Listed here are molecules together with their documented pIC50.
reported_endpoint: pIC50

{"columns": ["molecule", "modifier_sign", "recorded_result"],
 "data": [
  ["CC1COCCN1c1cc(-c2ccnn2C)c2ccnc(-c3ccn[nH]3)c2n1 (stereo unspecified) + Cc1cncc(-c2nc(NCCc3c[nH]c4ccccc34)c3ncn(C(C)C)c3n2)c1", "=", 6.98],
  ["Nc1ncn(C2CC(O)C(CO)S2)c(=O)n1 (stereo unspecified) + CC(CO)NC(=O)c1cc(-c2ccc(Cl)cc2)nn(-c2cnn(C)c2)c1=O", "<", 6.52],
  ["COc1cccc2c1C(=O)c1c(O)c3c(c(O)c1C2=O)CC(O)(C(=O)CO)CC3OC1CC(N)C(O)C(C)O1 (stereo unspecified) + Cc1ccccc1N=Nc1ccc(NC(=O)c2ccnn2C)c(C)c1", "=", 6.45],
  ["O=C(c1cc(Cc2n[nH]c(=O)c3ccccc23)ccc1F)N1CCN(C(=O)C2CC2)CC1 + Cc1cncc(-c2nc(NCCc3c[nH]c4ccccc34)c3ncn(C(C)C)c3n2)c1", "<", 5.00],
  ["CC(C)c1c(-c2ccccc2)nc2c(C#N)c[nH]n2c1=O + CC(CO)NC(=O)c1cc(-c2ccc(Cl)cc2)nn(-c2cnn(C)c2)c1=O", "<", 5.00],
  ["CC[C@@]1(O)C(=O)OCc2c1cc1n(c2=O)Cc2cc3c(CN(C)C)c(O)ccc3nc2-1 + Cc1cncc(-c2nc(NCCc3c[nH]c4ccccc34)c3ncn(C(C)C)c3n2)c1", "=", 7.83]
]}

====

System: Hs578T complex spheroid growth, percent test/control
Assay: Anticancer human tumor Hs578T cell line growth inhibition [AhR]; active means viability on the fitted dose curve at most 10% of control; inactive means the rest;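 further: luminescent viability signal as a proxy for spheroid growth; spheroids exposed to agents for one week after three days of growth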
Settings: second compound 10 µM; first compound 0.0949 µM
Classes used: 1 (active), -1 (inactive)

{"columns": ["compound", "class_name"],
 "data": [
  ["CCc1c2c(nc3ccc(O)cc13)-c1cc3c(c(=O)n1C2)COC(=O)[C@]3(O)CC + Cc1ccccc1N=Nc1ccc(NC(=O)c2ccnn2C)c(C)c1", -1],
  ["Nc1ncn(C2CC(O)C(CO)S2)c(=O)n1 (stereo not drawn) + Cc1cncc(-c2nc(NCCc3c[nH]c4ccccc34)c3ncn(C(C)C)c3n2)c1", 1],
  ["CCc1c2c(nc3ccc(O)cc13)-c1cc3c(c(=O)n1C2)COC(=O)[C@]3(O)CC + CC(CO)NC(=O)c1cc(-c2ccc(Cl)cc2)nn(-c2cnn(C)c2)c1=O", -1]
]}

====

Tested on: Hs578T complex spheroid growth, percent test/control
Test: Anticancer human tumor Hs578T cell line growth inhibition [AhR];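 further: luminescent viability signal as a proxy for spheroid growth; spheroids exposed to agents for one week after three days of growth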
Details: second compound 10 µM; first compound 0.0949 µM; stronger effect = lower value
hey, just use true (1) if measured viability, T/C is less than 7%, otherwise false (0)

{"columns": ["compound", "target_of_assay", "class_name"],
 "data": [
  ["CC(C)CC(NC(=O)C(Cc1ccccc1)NC(=O)c1cnccn1)B(O)O (configuration not stated) + CC(CO)NC(=O)c1cc(-c2ccc(Cl)cc2)nn(-c2cnn(C)c2)c1=O", "Hs578T complex spheroid growth, percent test/control", "true (1)"],
  ["CCN(c1cc(-c2ccc(CN3CCOCC3)cc2)cc(C(=O)NCc2c(C)cc(C)[nH]c2=O)c1C)C1CCOCC1 + CC(CO)NC(=O)c1cc(-c2ccc(Cl)cc2)nn(-c2cnn(C)c2)c1=O", "Hs578T complex spheroid growth, percent test/control", "false (0)"],
  ["CC(C)CC(NC(=O)C(Cc1ccccc1)NC(=O)c1cnccn1)B(O)O (configuration not stated) + Cc1ccccc1N=Nc1ccc(NC(=O)c2ccnn2C)c(C)c1", "Hs578T complex spheroid growth, percent test/control", "true (1)"],
  ["CCN(c1cc(-c2ccc(CN3CCOCC3)cc2)cc(C(=O)NCc2c(C)cc(C)[nH]c2=O)c1C)C1CCOCC1 + Cc1cncc(-c2nc(NCCc3c[nH]c4ccccc34)c3ncn(C(C)C)c3n2)c1", "Hs578T complex spheroid growth, percent test/control", "false (0)"],
  ["CCc1c2c(nc3ccc(O)cc13)-c1cc3c(c(=O)n1C2)COC(=O)[C@]3(O)CC + Cc1cncc(-c2nc(NCCc3c[nH]c4ccccc34)c3ncn(C(C)C)c3n2)c1", "Hs578T complex spheroid growth, percent test/control", "true (1)"],
  ["CCN(c1cc(-c2ccc(CN3CCOCC3)cc2)cc(C(=O)NCc2c(C)cc(C)[nH]c2=O)c1C)C1CCOCC1 + Cc1ccccc1N=Nc1ccc(NC(=O)c2ccnn2C)c(C)c1", "Hs578T complex spheroid growth, percent test/control", "false (0)"],
  ["O=C(C=Cn1cnc(-c2cc(C(F)(F)F)cc(C(F)(F)F)c2)n1)NNc1cnccn1 + CC(CO)NC(=O)c1cc(-c2ccc(Cl)cc2)nn(-c2cnn(C)c2)c1=O", "Hs578T complex spheroid growth, percent test/control", "false (0)"],
  ["O=C(C=Cn1cnc(-c2cc(C(F)(F)F)cc(C(F)(F)F)c2)n1)NNc1cnccn1 + Cc1ccccc1N=Nc1ccc(NC(=O)c2ccnn2C)c(C)c1", "Hs578T complex spheroid growth, percent test/control", "false (0)"],
  ["CC(C)CC(NC(=O)C(Cc1ccccc1)NC(=O)c1cnccn1)B(O)O (configuration not stated) + Cc1cncc(-c2nc(NCCc3c[nH]c4ccccc34)c3ncn(C(C)C)c3n2)c1", "Hs578T complex spheroid growth, percent test/control", "true (1)"],
  ["O=C(C=Cn1cnc(-c2cc(C(F)(F)F)cc(C(F)(F)F)c2)n1)NNc1cnccn1 + Cc1cncc(-c2nc(NCCc3c[nH]c4ccccc34)c3ncn(C(C)C)c3n2)c1", "Hs578T complex spheroid growth, percent test/control", "true (1)"],
  ["Nc1ncn(C2CC(O)C(CO)S2)c(=O)n1 (configuration not stated) + Cc1ccccc1N=Nc1ccc(NC(=O)c2ccnn2C)c(C)c1", "Hs578T complex spheroid growth, percent test/control", "false (0)"],
  ["Nc1ncn(C2CC(O)C(CO)S2)c(=O)n1 (configuration not stated) + CC(CO)NC(=O)c1cc(-c2ccc(Cl)cc2)nn(-c2cnn(C)c2)c1=O", "Hs578T complex spheroid growth, percent test/control", "false (0)"]
]}
